Target: Gamma-butyrobetaine dioxygenase (Homo sapiens, UniProt O75936)
Sequence (O75936 whole entry): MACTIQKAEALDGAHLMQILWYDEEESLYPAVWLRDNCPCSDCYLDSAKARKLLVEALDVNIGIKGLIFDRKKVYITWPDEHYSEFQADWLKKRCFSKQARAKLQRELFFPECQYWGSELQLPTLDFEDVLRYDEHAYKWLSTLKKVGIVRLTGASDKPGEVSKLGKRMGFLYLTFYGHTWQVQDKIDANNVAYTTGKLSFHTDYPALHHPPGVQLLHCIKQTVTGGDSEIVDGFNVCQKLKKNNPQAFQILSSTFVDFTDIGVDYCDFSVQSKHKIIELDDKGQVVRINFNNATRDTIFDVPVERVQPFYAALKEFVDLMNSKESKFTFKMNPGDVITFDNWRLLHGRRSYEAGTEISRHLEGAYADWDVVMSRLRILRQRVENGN
Experiment: Inhibition of human BBOX pre-incubated for 10 mins using TBS-protected fluorescein probe and Fe (II) (Fe(NH4)2(SO4)2 salt by fluoride release assay
MEASUREMENT KIND: log10 IC50 (log10 of the value in µM)
For clarity, the numbers are log10 values of IC50 expressed in µM.

The examples below pair each entry with its known result.
INSERT INTO assay_data (compound, readout_value) VALUES
  ('O=C(O)CNC(=O)c1nc(Cl)c2ccccc2c1O', 1.52),
  ('O=c1c2ccccc2[se]n1-c1ccccc1', -0.15),
  ('Cl[Se]c1ccccc1', 0.60),
  ('Br[Se]c1ccccc1', 0.53);

# batch size: 4; output log10 IC50 per entry
1. O[Se]c1ccccc1
2. O=[Se](O)c1ccccc1
3. c1ccc([Se][Se]c2ccccc2)cc1
4. CN(C)C(=S)SSC(=S)N(C)C

[1.54, 1.04, 1.67, 1.53]

Recorded values, source ChEMBL document CHEMBL3352528.
